Record form. Attribute: log10 of Ki. Fill in for each entry.
- Assayed system: mouse CB2 receptor (Mus musculus)
- Construct: The membrane fractions of mouse brain and spleen that abundantly express CB1 and CB2 receptor, respectively; from tissue; host or cells: mouse spleen membrane fraction (C57BL/6 J)
- Sequence (P47936 whole entry): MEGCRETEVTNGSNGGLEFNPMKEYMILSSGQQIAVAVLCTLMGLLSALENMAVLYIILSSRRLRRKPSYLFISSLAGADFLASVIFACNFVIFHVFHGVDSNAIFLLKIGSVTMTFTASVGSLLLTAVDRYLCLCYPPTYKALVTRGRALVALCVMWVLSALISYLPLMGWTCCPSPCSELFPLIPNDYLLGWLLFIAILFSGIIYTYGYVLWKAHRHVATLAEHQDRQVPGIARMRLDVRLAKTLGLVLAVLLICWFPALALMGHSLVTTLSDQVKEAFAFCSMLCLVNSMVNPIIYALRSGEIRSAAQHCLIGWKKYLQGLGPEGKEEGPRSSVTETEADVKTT
- Experimental details: Binding inhibitory activity to mouse cannabinoid receptors, spleen membrane fraction
- Set-up: species or system C57BL/6 J mice
- Measurement conditions: mouse spleen membrane fraction; read-out: Binding Assay: Ki Spleen (CB2)
Log scale reminder: Ki in nM, then log10 taken.

Illustrative cases are given below, each with its answer.
CSC(=S)N1CC2(CCCCC2)CSC1=Nc1ccccc1C(C)C : 0.08
Cc1c(C(=O)c2cccc3ccccc23)c2cccc3c2n1[C@H](CN1CCOCC1)CO3 [WIN55212-2, reference compound] : 0.78
CCCCCc1cc(O)c2c(c1)OC(C)(C)[C@@H]1CCC(C)=C[C@@H]21 [Δ^9-tetrahydrocannabinol, delta-9-tetrahydrocannabinol, reference compound] : 0.96
CCCCn1c2c(cc(C(=O)NCc3ccccc3)c1=O)CCCCCC2 : -0.22

Now look at this one.
Query: Quick one: give measured log10 of Ki for CCCCn1c2c(cc(C(=O)NC3CCCCC3)c1=O)CCCCCC2
Reply: -1.00

====

- Assayed system: mouse CB1 receptor (Mus musculus)
- Construct: The membrane fractions of mouse brain and spleen that abundantly express CB1 and CB2 receptor, respectively; from tissue; host or cells: mouse brain membrane fraction (C57BL/6 J)
- Sequence (P47746 whole entry): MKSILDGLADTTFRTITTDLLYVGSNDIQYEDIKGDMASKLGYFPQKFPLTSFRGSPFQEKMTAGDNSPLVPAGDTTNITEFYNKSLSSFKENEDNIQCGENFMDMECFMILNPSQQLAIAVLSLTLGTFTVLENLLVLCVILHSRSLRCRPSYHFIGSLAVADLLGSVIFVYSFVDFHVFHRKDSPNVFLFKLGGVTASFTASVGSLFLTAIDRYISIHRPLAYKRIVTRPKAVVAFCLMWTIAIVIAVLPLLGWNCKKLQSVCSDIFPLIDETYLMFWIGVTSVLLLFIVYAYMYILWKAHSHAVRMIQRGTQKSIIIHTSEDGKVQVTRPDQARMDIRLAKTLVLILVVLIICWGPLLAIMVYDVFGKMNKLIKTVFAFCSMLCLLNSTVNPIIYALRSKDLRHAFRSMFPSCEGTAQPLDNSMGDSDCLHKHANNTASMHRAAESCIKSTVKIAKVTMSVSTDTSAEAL
- Experimental details: Binding inhibitory activity to mouse cannabinoid receptors, brain membrane fraction
- Design: species or system C57BL/6 J mice
Measured metric: pKi
Give bare numbers, as −log10 of the molar value.

Query: Using known records, supply pKi for C=CCSC(=S)N1CC2(CCCCC2)CSC1=Nc1ccccc1OC
Reply: 7.92

====

- Assayed system: human CB2R (Homo sapiens, UniProt P34972)
- Construct: expressed in transfected cells; host or cells: CHO cells
- Sequence (P34972 whole entry): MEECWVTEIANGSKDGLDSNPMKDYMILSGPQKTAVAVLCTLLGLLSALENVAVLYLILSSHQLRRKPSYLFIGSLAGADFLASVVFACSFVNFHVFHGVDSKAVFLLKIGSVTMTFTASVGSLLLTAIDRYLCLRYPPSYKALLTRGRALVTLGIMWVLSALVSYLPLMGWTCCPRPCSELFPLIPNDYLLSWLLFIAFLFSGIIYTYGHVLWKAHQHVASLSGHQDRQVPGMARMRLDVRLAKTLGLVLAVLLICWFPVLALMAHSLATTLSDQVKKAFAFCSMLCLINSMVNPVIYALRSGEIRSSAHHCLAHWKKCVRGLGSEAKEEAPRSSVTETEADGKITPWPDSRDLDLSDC
- Experimental details: Cannabinoid receptor-mediated suppression of forskolin-stimulated cAMP synthesis, CB2R
- Assay type: cell-based
- Measurement conditions: CHO cells expressing human CB2R; read-out: cAMP Inhibition: IC50 CB2
Kindly supply the reported pIC50 values for the records listed here.
Answers are plain numbers, as −log10 of the molar value.

CCCCn1c2c(cc(C(=O)NC3CCCCC3)c1=O)CCCCCC2 [Compound 10-035] : 9.70
CSC(=S)N1CC2(CCCCC2)CSC1=Nc1ccccc1C(C)C [Compound I-270] : 8.10
CCCCn1c2c(cc(C(=O)NCc3ccccc3)c1=O)CCCCCC2 [Compound 4-101] : 8.85

Next, consider the following molecule.
Query: State its pIC50 for this molecule: C=CCSC(=S)N1CC2(CCCCC2)CSC1=Nc1ccccc1OC [II-86]
Reply: 9.00

====

The compounds below have reported Ki for Human cannabinoid receptor CB1R (Homo sapiens).
Numbers only, in nM.

CCCCn1c2c(cc(C(=O)NCc3ccccc3)c1=O)CCCCCC2 : 890

Query: Name the recorded Ki of the item O=C(NCc1ccccc1)c1cc2c(n(Cc3ccncc3)c1=O)CCCCCC2 in your answer.
Reply: 512

====

- Assayed system: human CB2R (Homo sapiens, UniProt P34972)
- Construct: expressed in transfected cells; host or cells: CHO cells
- Experimental details: Cannabinoid receptor-mediated suppression of forskolin-stimulated cAMP synthesis, CB2R
- Format: cell-based
- Measurement conditions: CHO cells expressing human CB2R, forskolin-stimulated cAMP synthesis; read-out: CB2 receptor IC50
What log10 IC50 was measured for each of the following?
Transform log10 | Measure IC50 | Unit nM

In the examples that follow, each entry is paired with its recorded log10 IC50.
COCC(=O)N1CC(C)(C)CSC1=Nc1ccccc1C(C)C [Compound I-93] : -0.22
CCCc1ccccc1N=C1SCC(C)(C)CN1C(=O)SC [Compound I-49] : 0.34
CCCCn1c2c(cc(C(=O)NCc3ccccc3)c1=O)CCCCCC2 [Compound 4-101] : 0.15

For each of the compounds below, state log10 IC50.
1. CCSC(=O)N1CC(C)(C)CSC1=Nc1ccc([N+](=O)[O-])cc1C(C)C [Compound I-46]
2. CCSC(=O)N1CC(C)(C)CSC1=Nc1ccc(C)cc1C [Compound I-39]
3. CSC(=S)N1CC(C)(C)CSC1=Nc1ccc(C)c(C)c1 [Compound I-74]

Reply:
1. 0.73
2. 1.14
3. 0.20
